Would you mind telling me the reported inhibition at 1 µM of each entry?
target: KDR (VEGFR2) (Homo sapiens (Human), UniProt P35968); experiment: Z′-LYTE kinase inhibition assay (Invitrogen), KDR; format: biochemical; conditions: 1 μM compound, Z′-LYTE method; read-out: % inhibition at 1 μM against KDR
Sequence (P35968 20-1356): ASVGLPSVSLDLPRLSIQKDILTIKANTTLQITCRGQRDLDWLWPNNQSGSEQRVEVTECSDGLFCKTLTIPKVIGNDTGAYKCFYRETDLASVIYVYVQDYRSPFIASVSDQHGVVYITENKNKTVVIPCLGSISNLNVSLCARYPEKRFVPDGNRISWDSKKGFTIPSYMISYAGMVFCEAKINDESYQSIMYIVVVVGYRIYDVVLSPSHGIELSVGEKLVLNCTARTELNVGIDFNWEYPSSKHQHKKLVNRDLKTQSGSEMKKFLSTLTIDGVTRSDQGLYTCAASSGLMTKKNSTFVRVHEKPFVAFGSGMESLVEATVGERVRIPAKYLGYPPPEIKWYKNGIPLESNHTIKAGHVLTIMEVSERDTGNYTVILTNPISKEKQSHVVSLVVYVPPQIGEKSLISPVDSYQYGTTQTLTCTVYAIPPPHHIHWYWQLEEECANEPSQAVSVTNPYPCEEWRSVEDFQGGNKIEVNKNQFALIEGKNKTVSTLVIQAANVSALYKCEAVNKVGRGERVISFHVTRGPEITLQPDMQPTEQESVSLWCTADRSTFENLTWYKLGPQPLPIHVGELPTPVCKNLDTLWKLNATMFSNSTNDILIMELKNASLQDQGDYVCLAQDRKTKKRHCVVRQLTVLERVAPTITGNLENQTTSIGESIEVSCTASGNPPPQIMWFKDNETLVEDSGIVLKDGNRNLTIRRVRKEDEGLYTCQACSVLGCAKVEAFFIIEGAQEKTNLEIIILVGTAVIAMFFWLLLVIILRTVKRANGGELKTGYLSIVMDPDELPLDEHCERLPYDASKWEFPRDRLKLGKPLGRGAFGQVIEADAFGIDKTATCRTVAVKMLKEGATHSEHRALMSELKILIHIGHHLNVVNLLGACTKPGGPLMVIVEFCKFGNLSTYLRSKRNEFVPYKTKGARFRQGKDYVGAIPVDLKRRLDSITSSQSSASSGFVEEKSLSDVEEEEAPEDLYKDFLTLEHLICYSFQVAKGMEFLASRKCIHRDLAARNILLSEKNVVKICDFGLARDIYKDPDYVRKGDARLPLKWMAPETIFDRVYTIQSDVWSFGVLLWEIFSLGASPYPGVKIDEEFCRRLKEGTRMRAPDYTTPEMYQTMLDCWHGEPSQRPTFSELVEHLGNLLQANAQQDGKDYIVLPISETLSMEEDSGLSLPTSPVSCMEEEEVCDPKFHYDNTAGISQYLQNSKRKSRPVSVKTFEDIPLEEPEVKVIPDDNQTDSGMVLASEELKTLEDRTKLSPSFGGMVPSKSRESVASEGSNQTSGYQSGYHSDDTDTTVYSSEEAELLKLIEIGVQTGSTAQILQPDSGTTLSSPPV

Completed entries (count: 5):
# compound, inhibition at 1 µM
measured = [
    ("O=C(Nc1cccc(Cl)c1)Nc1ccc(F)c(C(=O)c2ccc3ncc(N4CCOCC4)nc3c2)c1 [Compound C056]", "> 89%"),
    ("O=C(Nc1ccc(F)c(C(=O)c2ccc3ncc(N4CCOCC4)nc3c2)c1)c1ccc(Cl)c(C(F)(F)F)c1 [Compound C134]", "> 89%"),
    ("O=C(Nc1ccc(F)c(C(=O)c2ccc3nccnc3c2)c1)c1cccc(F)c1 [Compound C115]", "70 to 89%"),
    ("O=C(Nc1cccc(C(=O)c2ccc3nccnc3c2)c1)c1ccc(Cl)c(C(F)(F)F)c1 [Compound C111]", "< 70%"),
    ("COc1cnc2ccc(C(=O)c3cc(NC(=O)Nc4ccc(F)cc4)ccc3F)cc2n1 [Compound C080]", "70 to 89%"),
]

Report inhibition at 1 µM for every entry below.
1. O=C(Nc1ccc(F)c(C(=O)c2ccc3nccnc3c2)c1F)c1cccc(C(F)(F)F)c1 [Compound C114]
2. O=C(c1cccc(NC(=O)c2cc(C(F)(F)F)ccc2Cl)c1)c1ccc2nccnc2c1 [Compound C106]
3. O=C(Nc1cccc(F)c1)Nc1ccc(F)c(C(=O)c2ccc3ncc(N4CCNCC4)nc3c2)c1 [Compound C084]
4. O=C(Nc1cccc(C(=O)c2ccc3ncc(N4CCOCC4)nc3c2)c1)c1ccc(Cl)c(C(F)(F)F)c1 [Compound C120]
5. O=C(Nc1cccc(C(=O)c2ccc3nccnc3c2)c1)Nc1cc(C(F)(F)F)ccc1Cl [Compound C002]
6. O=C(Nc1cc(F)cc(C(=O)c2ccc3ncc(N4CCOCC4)nc3c2)c1)Nc1ccc(Cl)c(Cl)c1 [Compound C050]
7. O=C(Nc1cc(F)cc(C(=O)c2ccc3ncc(N4CCOCC4)nc3c2)c1)c1ccc(Cl)c(C(F)(F)F)c1 [Compound C135]

A:
["70 to 89%", "< 70%", "> 89%", "70 to 89%", "< 70%", "70 to 89%", "< 70%"]

Provide the reported inhibition at 1 µM of each entry below, same order.
1. O=C(Nc1cccc(C(=O)c2ccc3ncc(N4CCCC4)nc3c2)c1)c1cccc(F)c1 [Compound C121]
2. O=C(Nc1cccc(F)c1)Nc1cc(F)cc(C(=O)c2ccc3nccnc3c2)c1 [Compound C025]
3. O=C(Nc1ccc(Cl)c(C(F)(F)F)c1)Nc1ccc(F)c(C(=O)c2ccc3nccnc3c2)c1Cl [Compound C008]

A:
["70 to 89%", "< 70%", "< 70%"]

Hi! Can you tell me inhibition at 1 µM for each of these compounds?
1. O=C(Nc1ccc(F)cc1)Nc1ccc(F)c(C(=O)c2ccc3ncc(N4CCNCC4)nc3c2)c1 [Compound C100]
2. O=C(Nc1cc(F)cc(C(=O)c2ccc3ncc(N4CCOCC4)nc3c2)c1)Nc1ccc(F)c(F)c1 [Compound C049]

A:
1. > 89%
2. < 70%

###

molecular target: BRAF V600E (Homo sapiens (Human), UniProt P15056, V600E); assay: Z′-LYTE kinase inhibition assay (Invitrogen), BRAF V600E; type: biochemical; details: 1 μM compound, Z′-LYTE method; read-out: % inhibition at 1 μM against BRAF V600E
Sequence (P15056 whole entry V600E): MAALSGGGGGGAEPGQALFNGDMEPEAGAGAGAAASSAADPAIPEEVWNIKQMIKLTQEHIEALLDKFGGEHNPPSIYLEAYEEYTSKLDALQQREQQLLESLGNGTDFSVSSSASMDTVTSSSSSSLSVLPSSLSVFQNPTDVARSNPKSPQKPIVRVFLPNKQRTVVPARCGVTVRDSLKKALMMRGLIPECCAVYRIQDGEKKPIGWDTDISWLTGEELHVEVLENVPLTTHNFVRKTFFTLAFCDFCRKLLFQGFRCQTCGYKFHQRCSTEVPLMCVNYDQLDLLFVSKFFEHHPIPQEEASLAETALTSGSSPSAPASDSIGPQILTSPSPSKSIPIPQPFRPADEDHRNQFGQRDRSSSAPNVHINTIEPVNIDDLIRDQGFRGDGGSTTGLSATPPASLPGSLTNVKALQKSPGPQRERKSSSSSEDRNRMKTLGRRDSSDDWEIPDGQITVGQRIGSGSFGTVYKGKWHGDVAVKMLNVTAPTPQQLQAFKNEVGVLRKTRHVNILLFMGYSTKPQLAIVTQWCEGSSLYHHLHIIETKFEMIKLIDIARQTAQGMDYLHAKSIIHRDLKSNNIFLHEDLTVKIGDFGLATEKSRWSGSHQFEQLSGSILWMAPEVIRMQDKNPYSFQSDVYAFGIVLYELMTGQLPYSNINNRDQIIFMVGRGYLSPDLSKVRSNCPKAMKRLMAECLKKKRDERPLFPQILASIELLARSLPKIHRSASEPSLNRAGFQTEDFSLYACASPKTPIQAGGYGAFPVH
quantityKind: inhibition at 1 µM

# annotated cases, reported inhibition at 1 µM shown
# molecule, inhibition at 1 µM
measured = [
    ("O=C(Nc1cc(F)cc(C(=O)c2ccc3ncc(N4CCOCC4)nc3c2)c1)Nc1cccc(C(F)(F)F)c1 [Compound C038]", "> 89%"),
    ("O=C(Nc1ccc(Cl)c(C(F)(F)F)c1)Nc1cc(F)c(F)c(C(=O)c2ccc3nccnc3c2)c1F [Compound C007]", "< 70%"),
    ("O=C(Nc1ccc(F)cc1)Nc1cc(F)cc(C(=O)c2ccc3ncc(N4CCOCC4)nc3c2)c1 [Compound C043]", "> 89%"),
    ("O=C(Nc1ccc(F)c(C(=O)c2ccc3ncc(N4CCNCC4)nc3c2)c1)Nc1ccc(Cl)c(C(F)(F)F)c1 [Compound C086]", "> 89%"),
    ("Cn1cc(-c2cnc3ccc(C(=O)c4cccc(NC(=O)Nc5ccc(Cl)c(C(F)(F)F)c5)c4)cc3n2)cn1 [Compound C028]", "> 89%"),
    ("O=C(Nc1cccc(C(F)(F)F)c1)Nc1cc(F)c(F)c(C(=O)c2ccc3ncc(N4CCOCC4)nc3c2)c1F [Compound C034]", "< 70%"),
    ("O=C(Nc1cccc(C(F)(F)F)c1)Nc1ccc(F)c(C(=O)c2ccc3nccnc3c2)c1 [Compound C014]", "> 89%"),
    ("O=C(Nc1cc(F)c(F)c(C(=O)c2ccc3nccnc3c2)c1F)c1ccc(Cl)c(C(F)(F)F)c1 [Compound C140]", "70 to 89%"),
    ("O=C(Nc1cc(F)cc(Cl)c1)Nc1ccc(F)c(C(=O)c2ccc3nccnc3c2)c1 [Compound C078]", "> 89%"),
    ("O=C(Nc1cccc(Cl)c1)Nc1cc(F)cc(C(=O)c2ccc3nccnc3c2)c1 [Compound C068]", "> 89%"),
]

Dear colleague, could you please provide inhibition at 1 µM for the molecules listed below?
1. O=C(Nc1cccc(F)c1)Nc1ccc(F)c(C(=O)c2ccc3ncc(N4CCOCC4)nc3c2)c1 [Compound C035]
2. O=C(Nc1cc(F)c(F)c(C(=O)c2ccc3nccnc3c2)c1F)c1cccc(C(F)(F)F)c1 [Compound C109]
3. O=C(Nc1cccc(F)c1)Nc1cc(F)c(F)c(C(=O)c2ccc3ncc(N4CCOCC4)nc3c2)c1 [Compound C039]
4. O=C(Nc1ccc(Cl)cc1)Nc1ccc(F)c(C(=O)c2ccc3ncc(N4CCOCC4)nc3c2)c1 [Compound C054]
5. O=C(Nc1cccc(Cl)c1)Nc1cc(F)cc(C(=O)c2ccc3ncc(N4CCOCC4)nc3c2)c1 [Compound C047]

A:
1: > 89%; 2: 70 to 89%; 3: > 89%; 4: > 89%; 5: > 89%

###

So I've got a bunch of compounds here, and I need their pIC50 values.
system: A375 cells; assay: Inhibition of cancer cell growth, MTT assay, A375; assay type: cell-based; settings: Homo sapiens, A-375, 72 h exposure
pIC50: −log10 of the molar value.

Example compounds with recorded pIC50:
# structureSmilesString, assaySystem, pIC50
rows = [
    ("O=C(Nc1cccc(F)c1)Nc1ccc(F)c(C(=O)c2ccc3ncc(N4CCNCC4)nc3c2)c1", "A375 cells", "> 6.00"),
    ("O=C(Nc1cccc(C(F)(F)F)c1)Nc1cc(F)c(F)c(C(=O)c2ccc3ncc(N4CCOCC4)nc3c2)c1", "A375 cells", "> 6.00"),
    ("O=C(Nc1cccc(F)c1)Nc1cc(F)c(F)c(C(=O)c2ccc3nccnc3c2)c1", "A375 cells", "< 5.30"),
    ("O=C(Nc1ccc(F)cc1)Nc1cc(F)cc(C(=O)c2ccc3ncc(N4CCOCC4)nc3c2)c1", "A375 cells", "< 5.30"),
    ("O=C(Nc1ccc(Cl)cc1)Nc1ccc(F)c(C(=O)c2ccc3nccnc3c2)c1", "A375 cells", "5.30 to 6.00"),
    ("O=C(Nc1ccc(F)c(C(=O)c2ccc3nccnc3c2)c1F)c1cccc(F)c1", "A375 cells", "< 5.30"),
    ("O=C(Nc1ccc(Cl)c(Cl)c1)Nc1ccc(F)c(C(=O)c2ccc3nccnc3c2)c1", "A375 cells", "> 6.00"),
]

Could you now consider this next compound?
Q: # value lookup — system A375 cells, readout pIC50, item O=C(Nc1ccc(F)c(Cl)c1)Nc1ccc(F)c(C(=O)c2ccc3nccnc3c2)c1
A: 5.30 to 6.00

###

target: BRAF V600E (Homo sapiens (Human), UniProt P15056, V600E); test: Z′-LYTE kinase inhibition assay (Invitrogen), BRAF V600E; format: biochemical; details: 1 μM compound, Z′-LYTE method; read-out: % inhibition at 1 μM against BRAF V600E
quantityKind: inhibition at 1 µM

// solved cases for inhibition at 1 µM follow
# structureSmilesString, quantityKind, measurement
data = [
    ("NCCNc1cnc2ccc(C(=O)c3cc(NC(=O)Nc4cc(F)cc(F)c4)ccc3F)cc2n1", "inhibition at 1 µM", "> 89%"),
    ("O=C(Nc1cc(F)c(F)c(C(=O)c2ccc3ncc(N4CCOCC4)nc3c2)c1)c1ccc(Cl)c(C(F)(F)F)c1", "inhibition at 1 µM", "70 to 89%"),
    ("O=C(Nc1cc(F)cc(Cl)c1)Nc1cc(F)cc(C(=O)c2ccc3ncc(N4CCOCC4)nc3c2)c1", "inhibition at 1 µM", "> 89%"),
    ("O=C(Nc1cccc(F)c1)Nc1ccc(F)c(C(=O)c2ccc3nccnc3c2)c1", "inhibition at 1 µM", "> 89%"),
    ("O=C(Nc1cccc(C(=O)c2ccc3ncc(N4CCOCC4)nc3c2)c1)c1cccc(F)c1", "inhibition at 1 µM", "> 89%"),
    ("O=C(Nc1ccc(Cl)c(C(F)(F)F)c1)Nc1ccc(F)c(C(=O)c2ccc3nccnc3c2)c1Cl", "inhibition at 1 µM", "< 70%"),
]

Turning to the following molecule.
Q: Notebook entry, BRAF V600E (Homo sapiens (Human), UniProt P15056, V600E) assay: inhibition at 1 µM of O=C(Nc1ccc(F)c(C(=O)c2ccc3ncc(N4CCOCC4)nc3c2)c1)Nc1ccc(Cl)c(C(F)(F)F)c1 = ?
A: 70 to 89%
